Measured IC50, listed per entry for reference.
# measured.target: human CD38 (Homo sapiens)
# Construct: The extracellular domain of human CD38 was expressed in pichia pastoris and purified to homogeneity
# Sequence (P28907 43-300 limits assumed): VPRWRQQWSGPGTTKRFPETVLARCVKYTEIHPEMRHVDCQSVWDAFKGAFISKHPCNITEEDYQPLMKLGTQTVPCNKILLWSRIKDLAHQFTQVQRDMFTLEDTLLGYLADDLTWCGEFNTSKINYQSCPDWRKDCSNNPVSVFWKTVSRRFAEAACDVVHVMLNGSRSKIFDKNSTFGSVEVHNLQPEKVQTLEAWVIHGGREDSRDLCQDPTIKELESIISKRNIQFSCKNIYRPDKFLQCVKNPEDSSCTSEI
# run.description: human CD38 enzyme activity colorimetric assay
# stated.conditions: extracellular domain of human CD38, 0.4 nM CD38, 100 uM NAD+
outcome.measure: IC50

>>> print(df.to_string())
                                    molecule          result
 0  CC(C)c1c[nH]c2c(C(=O)N[C@H]3CC[C@H](OCC(C)(C)O)CC3)cc(-n3ccnc3)cc12       > 1000 nM
 1  O=C(N[C@H]1CC[C@H](NCC(F)F)CC1)c1cc(-n2ccnc2)cc2cc[nH]c12        < 500 nM
 2  C[C@](CO)(N[C@H]1CC[C@H](NC(=O)c2cc(-n3ccnc3)cc3cc[nH]c23)CC1)C(F)(F)F  500 to 1000 nM
 3  CC(O)(CN[C@H]1CC[C@H](NC(=O)c2cc(-n3ccnc3)cc3cc[nH]c23)CC1)C(F)(F)F (some centres unmarked)       > 1000 nM
 4  CCC(O)(CN[C@H]1CC[C@H](NC(=O)c2cc(-n3ccnc3)cc3cc[nH]c23)CC1)C(F)(F)F (some centres unmarked)  500 to 1000 nM
 5  C[C@@H](CS(C)(=O)=O)N[C@H]1CC[C@H](NC(=O)c2cc(-n3ccnc3)cc3cc[nH]c23)CC1       > 1000 nM
 6  CC(C)C(O)CO[C@H]1CC[C@H](NC(=O)c2cc(-n3ccnc3)cc3cc[nH]c23)CC1 (some centres unmarked)        < 500 nM
 7  O=C(N[C@H]1CC[C@H](NCC(F)F)CC1)c1cc(-n2ccnc2)cc2c(Cl)c[nH]c12       > 1000 nM
 8  CC(O)(C(=O)N[C@H]1CC[C@H](NC(=O)c2cc(-n3ccnc3)cc3cc[nH]c23)CC1)C(F)(F)F (some centres unmarked)        < 500 nM
 9  CC(O)(COC1CCC(NC(=O)c2cc(-n3ccnc3)cc3cc[nH]c23)CC1)C1CC1 (centres unmarked)        < 500 nM
10  CC(O)(CO[C@H]1CC[C@H](NC(=O)c2cc(-n3ccnc3)cc3cc[nH]c23)CC1)C(F)(F)F (some centres unmarked)        < 500 nM
11  CC(O)CO[C@H]1CC[C@H](NC(=O)c2cc(-n3ccnc3)cc3c(Cl)c[nH]c23)CC1 (some centres unmarked)  500 to 1000 nM
12  CNC(=O)[C@H]1CC[C@H](NC(=O)c2cc(-n3ccnc3)cc3cc[nH]c23)CC1        < 500 nM
13  CC(O)CO[C@H]1CC[C@H](NC(=O)c2cc(-n3ccnc3)cc3cc[nH]c23)CC1 (some centres unmarked)        < 500 nM
